- Test system: HOP-62 NSCLC
- Assay text: NCI-60 one-dose screen, 48 h
- Settings: 10 µM unless noted
About 83,000 compounds went through this panel and 20% of them were active in at least one assay; those are over-represented in the sample as a whole. The source made the active and inactive calls. Rule for the calls: active = growth percent below 10; inactive = the rest.
Field 'call' accepts class 1 (active), class 0 (inactive)

Completed entries (count: 10):
* NS(=O)(=O)c1ccc(N=Nc2c(O)n(Cc3ccccc3)c3ccc(Cl)cc23)cc1 | class 0
* C#CCOC(=O)/C=C/c1cn(-c2ccccc2)nc1-c1ccc(OC)cc1 | class 0
* COc1cc2c(c(OC)c1OC)CCC(c1cccc(C(=O)Nc3ccc(C#N)cc3)c1)O2 (stereo not drawn) | class 0
* C=CCc1c(O)c(C(=O)/C=C/c2ccccc2)c(OC)c2ccoc12 | class 0
* COc1ccc(Nc2ncc(Br)c(NCCCNC(=O)c3cccs3)n2)cc1 | class 0
* OB1OCc2cc(/C=C/c3cccc(C(F)(F)F)c3)ccc21 | class 1
* CC(=O)Oc1ccc(C)cc1C | class 0
* Oc1ccc(Cl)cc1/C=N\NC(=S)N/N=C/c1cc(Cl)ccc1O | class 0
* O=C(OC(CO)C(=O)NC12CC3CC(CC(C3)C1)C2)c1ccc(Cl)cc1 (stereo not drawn) | class 0
* Cn1cc(-c2nonc2-c2cn(C)c3ccccc23)c2ccccc21 | class 0

Attention now shifts to the item below.
Query: Hi, do you know how CCOC(=O)c1c(C(=O)c2cn(C)c3ccc(Br)cc23)c(-c2cn(C)c3ccc(Br)cc23)n(NC(=O)OC(C)(C)C)c1C came out in this test?
Reply: class 0
